Origin of the recorded values: the supplement of paper PMC8371130

Test system: HL-1
Protocol Summary: relative cell viability (CellTiter-Glo) vs DMSO control (% of DMSO control); higher = more viable cells
Measurement Parameters: oxygen condition: hypoxia 48 h (1% O2) + reoxygenation 24 h; 40 nM
Structures can show the parent of a compound that is named as a salt.
Quick list: relative cell viability per entry.

>  <Compound>
CCOc1ccc2nc(S(N)(=O)=O)sc2c1 [Ethoxzolamide]

>  <Target Desc>
HL-1

>  <relative cell viability>
100

$$$$
>  <Compound>
CN1C2CCCC1CC(NC(=O)c1nn(C)c3ccccc13)C2 (configuration not stated) [Granisetron HCl]

>  <Target Desc>
HL-1

>  <relative cell viability>
103

$$$$
>  <Compound>
CN1C2=CC(=O)/C(=N\NC(N)=O)C=C2CC1S(=O)(=O)O (configuration not stated) [Carbazochrome sodium sulfonate]

>  <Target Desc>
HL-1

>  <relative cell viability>
99

$$$$
>  <Compound>
CCOC(=O)C1=C(COCCN)NC(C)=C(C(=O)OC)C1c1ccccc1Cl (configuration not stated) [Amlodipine]

>  <Target Desc>
HL-1

>  <relative cell viability>
102

$$$$
>  <Compound>
CS(=O)(=O)c1ccc(C(=O)Nc2ccc(Cl)c(-c3ccccn3)c2)c(Cl)c1 [Vismodegib]

>  <Target Desc>
HL-1

>  <relative cell viability>
103

$$$$
>  <Compound>
COc1nc(C)nc(Cl)c1NC1=NCCN1 [Moxonidine]

>  <Target Desc>
HL-1

>  <relative cell viability>
103

$$$$
>  <Compound>
O=C(CCCN1CCC(O)(c2ccc(Cl)cc2)CC1)c1ccc(F)cc1 [Haloperidol]

>  <Target Desc>
HL-1

>  <relative cell viability>
101

$$$$
>  <Compound>
Clc1ccc2c(c1)C(N1CCNCC1)=Nc1ccccc1O2 [Amoxapine]

>  <Target Desc>
HL-1

>  <relative cell viability>
102

$$$$
>  <Compound>
CN(C)C(=N)NC(=N)N [Metformin hydrochloride]

>  <Target Desc>
HL-1

>  <relative cell viability>
98.4

$$$$
>  <Compound>
CCN1CC(CCN2CCOCC2)C(c2ccccc2)(c2ccccc2)C1=O (configuration not stated) [Doxapram HCl]

>  <Target Desc>
HL-1

>  <relative cell viability>
102

$$$$
>  <Compound>
O=C(Nc1c(Cl)cncc1Cl)c1ccc(OC(F)F)c(OCC2CC2)c1 [Roflumilast]

>  <Target Desc>
HL-1

>  <relative cell viability>
101

$$$$
>  <Compound>
O=C1CN2Cc3c(ccc(Cl)c3Cl)N=C2N1 [Anagrelide HCl]

>  <Target Desc>
HL-1

>  <relative cell viability>
97.6

$$$$
>  <Compound>
CC(C)(C)CC(C)(C)c1ccc(OCCOCC[N+](C)(C)Cc2ccccc2)cc1 [Benzethonium chloride]

>  <Target Desc>
HL-1

>  <relative cell viability>
102

$$$$
>  <Compound>
COc1ccc(C2C(=O)c3ccccc3C2=O)cc1 [Anisindione]

>  <Target Desc>
HL-1

>  <relative cell viability>
99.6

$$$$
>  <Compound>
CC(=O)O[C@@]12CO[C@@H]1C[C@H](O)[C@@]1(C)C(=O)[C@H](O)C3=C(C)[C@@H](OC(=O)[C@H](O)[C@@H](NC(=O)OC(C)(C)C)c4ccccc4)C[C@@](O)([C@@H](OC(=O)c4ccccc4)[C@H]21)C3(C)C [Docetaxel]

>  <Target Desc>
HL-1

>  <relative cell viability>
26.9

$$$$
>  <Compound>
O=C(O)[C@H](CC(=O)N1C[C@H]2CCCC[C@H]2C1)Cc1ccccc1 [Mitiglinide calcium]

>  <Target Desc>
HL-1

>  <relative cell viability>
108

$$$$
>  <Compound>
CCCCc1ncc(/C=C(\Cc2cccs2)C(=O)O)n1Cc1ccc(C(=O)O)cc1 [Eprosartan Mesylate]

>  <Target Desc>
HL-1

>  <relative cell viability>
96.2

$$$$
>  <Compound>
Cc1cn(-c2cc(NC(=O)c3ccc(C)c(Nc4nccc(-c5cccnc5)n4)c3)cc(C(F)(F)F)c2)cn1 [Nilotinib]

>  <Target Desc>
HL-1

>  <relative cell viability>
101

$$$$
>  <Compound>
Cc1nc2n(c(=O)c1CCN1CCC(c3noc4cc(F)ccc34)CC1)CCCC2O (configuration not stated) [Paliperidone]

>  <Target Desc>
HL-1

>  <relative cell viability>
106

$$$$
>  <Compound>
C=CC(=O)Nc1cc(Nc2nccc(-c3cn(C)c4ccccc34)n2)c(OC)cc1N(C)CCN(C)C

>  <Target Desc>
HL-1

>  <relative cell viability>
97.1

$$$$
>  <Compound>
Nc1cc(C(Cl)=C(Cl)Cl)c(S(N)(=O)=O)cc1S(N)(=O)=O [Clorsulon]

>  <Target Desc>
HL-1

>  <relative cell viability>
109

$$$$
>  <Compound>
CC(C)(OCc1nn(Cc2ccccc2)c2ccccc12)C(=O)O [Bindarit]

>  <Target Desc>
HL-1

>  <relative cell viability>
99.2

$$$$

----------
Tested on: HL-1
Protocol Summary: relative cell viability (CellTiter-Glo) vs DMSO control (% of DMSO control); higher = more viable cells
Measurement Parameters: oxygen condition: hypoxia 48 h (1% O2) + reoxygenation 24 h; 5000 nM
Structures can show the parent of a compound that is named as a salt.
Reported Metric: relative cell viability

>  <Compound>
Cc1ccc(N(CC2=NCCN2)c2cccc(O)c2)cc1 [Phentolamine mesilate]

>  <Measured Value>
106

$$$$
>  <Compound>
C[C@@H](O[C@H]1OCCN(Cc2nn(P(=O)(O)O)c(=O)[nH]2)[C@H]1c1ccc(F)cc1)c1cc(C(F)(F)F)cc(C(F)(F)F)c1 [Fosaprepitant dimeglumine]

>  <Measured Value>
108

$$$$
>  <Compound>
C=CC(=O)Nc1cc(Nc2nccc(-c3cn(C)c4ccccc34)n2)c(OC)cc1N(C)CCN(C)C

>  <Measured Value>
104

$$$$
>  <Compound>
COc1cc2nc(N(C)CCCNC(=O)C3CCCO3)nc(N)c2cc1OC (configuration not stated) [Alfuzosin hydrochloride]

>  <Measured Value>
106

$$$$
>  <Compound>
CCOc1ccc2ccccc2c1C(=O)N[C@@H]1C(=O)N2[C@@H]1SC(C)(C)[C@@H]2C(=O)O [nafcillin sodium monohydrate]

>  <Measured Value>
109

$$$$
>  <Compound>
O=C(O)c1cn(C2CC2)c2cc(N3CCNCC3)c(F)cc2c1=O [Ciprofloxacin]

>  <Measured Value>
121

$$$$
>  <Compound>
Cc1cccc(Nc2ccncc2S(=O)(=O)NC(=O)NC(C)C)c1 [Torsemide]

>  <Measured Value>
106

$$$$
>  <Compound>
N#C[C@@H]1CCCN1C(=O)CNC12CC3CC(CC(O)(C3)C1)C2 [Vildagliptin]

>  <Measured Value>
117

$$$$
>  <Compound>
C=C1CC[C@H](O)C/C1=C/C=C1\CCC[C@]2(C)[C@@H]([C@H](C)/C=C/[C@H](C)C(C)C)CC[C@@H]12 [Vitamin D2]

>  <Measured Value>
112

$$$$
>  <Compound>
N[C@@H](Cc1cc(I)c(Oc2ccc(O)c(I)c2)c(I)c1)C(=O)O [Liothyronine Sodium]

>  <Measured Value>
109

$$$$
>  <Compound>
O=c1[nH]c(=O)n([C@H]2C[C@H](O)[C@@H](CO)O2)cc1F [Floxuridine]

>  <Measured Value>
17.4

$$$$
>  <Compound>
CN1CCN2c3ccccc3Cc3ccccc3C2C1 (configuration not stated) [Mianserin hydrochloride]

>  <Measured Value>
107

$$$$
>  <Compound>
CN(C(=O)CN(CCO)CC(=O)N(C)C(C)(C)Cc1ccccc1)C(C)(C)Cc1ccccc1 [Oxethazaine]

>  <Measured Value>
115

$$$$
>  <Compound>
CS(=O)(=O)CCNCc1ccc(-c2ccc3ncnc(Nc4ccc(OCc5cccc(F)c5)c(Cl)c4)c3c2)o1 [Lapatinib Ditosylate]

>  <Measured Value>
84.4

$$$$
>  <Compound>
OC(CCN1CCCCC1)(c1ccccc1)C1CC2C=CC1C2 (configuration not stated) [Biperiden HCl]

>  <Measured Value>
108

$$$$
>  <Compound>
CN(CCOc1ccc(CC2SC(=O)NC2=O)cc1)c1ccccn1 (configuration not stated) [Rosiglitazone HCl]

>  <Measured Value>
109

$$$$
>  <Compound>
COc1ccc([C@H]2CNC(=O)C2)cc1OC1CCCC1 [S-(+)-Rolipram]

>  <Measured Value>
90.4

$$$$
>  <Compound>
Cn1nnc2c(C(N)=O)ncn2c1=O [Methazolastone]

>  <Measured Value>
106

$$$$
>  <Compound>
CN(C)CCOC(C)(c1ccccc1)c1ccccn1 (configuration not stated) [Doxylamine Succinate]

>  <Measured Value>
109

$$$$
>  <Compound>
CN(C)c1nc(N(C)C)nc(N(C)C)n1 [Altretamine]

>  <Measured Value>
109

$$$$
>  <Compound>
C[C@@H](Oc1cc(-c2cnn(C3CCNCC3)c2)cnc1N)c1c(Cl)ccc(F)c1Cl [Crizotinib]

>  <Measured Value>
70.3

$$$$
>  <Compound>
CC1COc2c(N3CCN(C)CC3)c(F)cc3c(=O)c(C(=O)O)cn1c23 (configuration not stated) [Ofloxacin]

>  <Measured Value>
108

$$$$
>  <Compound>
C[N+](C)(C)CCCCCC[N+](C)(C)C [Hexamethonium bromide]

>  <Measured Value>
113

$$$$
>  <Compound>
CN(CCOc1ccc(CC2SC(=O)NC2=O)cc1)c1ccccn1 (configuration not stated) [Rosiglitazone]

>  <Measured Value>
104

$$$$
>  <Compound>
c1cnc2cc3c(cc2n1)[C@@H]1CNC[C@H]3C1 [Varenicline tartrate]

>  <Measured Value>
106

$$$$
>  <Compound>
CCCc1ncc(C[n+]2ccccc2C)c(N)n1 [Amprolium HCl]

>  <Measured Value>
110

$$$$
>  <Compound>
CCCCc1nc(Cl)c(CO)n1Cc1ccc(-c2ccccc2-c2nnn[nH]2)cc1 [Losartan potassium]

>  <Measured Value>
108

$$$$
